- test.system: acetylcholine muscarinic M1 receptor (Homo sapiens)
- Construct: expressed in transfected cells; host or cells: CHOnfat cells (CHO cells with an NFAT reporter) expressing hM1, kept under Geneticin selection
- Sequence (P11229 1-460): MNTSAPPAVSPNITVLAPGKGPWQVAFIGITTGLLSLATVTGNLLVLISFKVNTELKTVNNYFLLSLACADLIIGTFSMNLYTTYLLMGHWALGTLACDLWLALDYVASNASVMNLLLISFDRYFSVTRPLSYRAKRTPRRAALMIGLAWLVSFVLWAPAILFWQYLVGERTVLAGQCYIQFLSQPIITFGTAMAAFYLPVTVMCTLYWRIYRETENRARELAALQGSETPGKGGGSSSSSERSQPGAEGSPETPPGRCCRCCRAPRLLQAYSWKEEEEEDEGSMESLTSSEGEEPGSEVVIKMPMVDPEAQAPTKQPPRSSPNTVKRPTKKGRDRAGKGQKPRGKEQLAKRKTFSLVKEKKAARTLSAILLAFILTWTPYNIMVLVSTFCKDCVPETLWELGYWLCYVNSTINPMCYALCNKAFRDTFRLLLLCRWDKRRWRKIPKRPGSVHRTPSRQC
- test: muscarinic FLIPR assay: intracellular calcium in CHOnfat/hM1 cells, potentiation of EC20 acetylcholine
- Assay type: cell-based
- experimental.conditions: Table 2; CHOnfat/hM1 cells, FLIPR, EC20 acetylcholine (3 nM final); read-out: M1 Pot.
- Procedure: The assay studies the effect of one or several concentrations of test compounds on basal or acetylcholine-stimulated Ca^2+ levels using FLIPR. Compounds are prepared and subjected to a preincubation period of […]. Thereafter, a single EC20 concentration of acetylcholine is added to each well (3 nM final). The intracellular Ca^2+ level of each sample is measured and compared to an acetylcholine control to determine any modulatory activity. […]
Exercise: for every item that follows, state its recorded EC50.
Please reply with the bare figure in µM and do not write the unit itself.

Could you tell me which EC50 is on file for `CCCC#CC1(F)CCN(Cc2cc3c(c4ncccc24)CN([C@H]2CCCC[C@@H]2O)C3=O)CC1` ?
0.13

Quick one: EC50 for C#CC1CCN(Cc2cc3c(c4ncccc24)CN(C2CCCCC2O)C3=O)CC1 (stereo not shown) ?
0.044

Quick one: EC50 of O=C1c2cc(CN3CCC(F)CC3)c3cccnc3c2CN1C1CCCCC1O (stereo not shown) ?
0.088

Need EC50 of CC1c2c(cc(CN3CCN(c4ccccn4)CC3)c3cccnc23)C(=O)N1C1CCCCC1O (stereo not shown) [Example 166] , thanks.
0.58

Query (compound): CC1c2c(cc(CN3CCN(c4ccccc4)CC3)c3cccnc23)C(=O)N1C1CCCCC1O (stereo not shown) [Example 176] ; field requested: EC50
0.093

Would you kindly share the measured EC50 for CC1c2c(cc(CN3CCC(F)CC3)c3cccnc23)C(=O)N1[C@H]1CCCC[C@@H]1O (stereo partly shown) ?
0.07

What EC50 value was documented for this compound, `CC1(F)CCN(Cc2cc3c(c4ncccc24)CN([C@H]2CCCC[C@@H]2O)C3=O)CC1` ?
0.25

Find the recorded EC50 belonging to `N#CC1(c2ccccn2)CCN(Cc2cc3c(c4ncccc24)CN([C@H]2CCCC[C@@H]2O)C3=O)CC1` and report it.
0.0076

Bench note: what EC50 did CC1c2c(cc(CN3CCC(F)(C#N)CC3)c3cccnc23)C(=O)N1C1CCCCC1O (single isomer, unassigned) [Example 118] show?
0.45

Give the measured EC50 of CC1c2c(cc(CN3CCN(c4cccnc4)CC3)c3cccnc23)C(=O)N1C1CCCCC1O (stereo not shown) [Example 163] .
0.52

Can you share its EC50? I mean this compound: CC1c2c(cc(CN3CCC(c4ccncc4)CC3)c3cccnc23)C(=O)N1C1CCCCC1O (stereo not shown) [Example 161]
0.65

Record request: EC50 value, item `C#CC1(F)CCN(Cc2cc3c(c4ncccc24)CN([C@H]2CCCC[C@@H]2O)C3=O)CC1`
0.011

Entry under review: `N#CC1(F)CCN(Cc2cc3c(c4ncccc24)CN([C@H]2CCCC[C@@H]2O)C3=O)CC1` . Reported EC50?
0.038

What value of EC50 has been reported for the following compound? CC1c2c(cc(CN3CCN(c4cnn(C)c4)CC3)c3cccnc23)C(=O)N1C1CCCCC1O (stereo not shown)
0.07

Could you share which EC50 value was measured for O=C1c2cc(CN3CCN(c4ccccn4)CC3)c3cccnc3c2CN1C1CCCCC1O (stereo not shown) ?
0.015

Need EC50, item N#CC1CCN(Cc2cc3c(c4ncccc24)CN([C@H]2CCCC[C@@H]2O)C3=O)CC1 [Example 94]
0.051
